Tested on: Zika virus NS2B-NS3 protease (unlinked)
assay-notes: Optimization of GU AMC qHTS for Zika virus inhibitors: Unlinked NS2B-NS3 protease assay (AID 1347151); note: nearly all actives have a fitted effect of over 80% in size
experimental-parameters: recombinant ZIKV NS2B-NS3 protease, fluorogenic AMC substrate; series mostly up to 52.5 µM
Results filed as inconclusive are left out. Calls of active or inactive are those of the source. Calls come from the whole dose curve; as a rule, active = well fitted inhibition curve with a large enough effect; inconclusive = small, poorly fitted or top-dose-only effect; inactive = no such curve, though single readings can be large or run the other way.
parameter-measured: outcome

{"columns": ["compound", "assay-result"],
 "data": [
  ["CC[C@H](C)[C@H]1O[C@]2(CC[C@@H]1C)C[C@@H]1C[C@@H](C/C=C(\\C)[C@@H](O[C@H]3C[C@H](OC)[C@@H](O[C@H]4C[C@H](OC)[C@@H](O)[C@H](C)O4)[C@H](C)O3)[C@@H](C)/C=C/C=C3\\CO[C@@H]4[C@H](O)C(C)=C[C@@H](C(=O)O1)[C@]34O)O2", "inactive"],
  ["CCOc1ccc(C2C(=O)N(C3CCCCC3)CC(=O)N2Cc2ccc(F)cc2)cc1OC (stereo not drawn)", "inactive"],
  ["O=C1c2cccc3c2[C@@H](CCC3)CN1[C@@H]1CN2CCC1CC2", "inactive"]
]}
